# Tested on: Acinetobacter baumannii
# ASSAY CONTEXT: Concentration 300 ug.mL-1; ASSAY_TEST Inhibition of Bacterial Growth; detection method Absorption (OD600); MEDIA CAMHB; plate type 384well; NBS; CORNING #3640; time 18 hr
# Description: Antibacterial activity against Acinetobacter baumannii ATCC 19606 (CO-ADD:GN_034); MIC in CAMBH media using NBS plates, by OD600
Screen size: about 21,000 compounds; fewer than 10 showed an effect of 50% or more. The list is a sample of the results. Entries with a potency or affinity are not part of this list.
QUANTITY NAME: Inhibition (%)
Write it as a number; the unit % goes unstated.

Field: example entries. Status: answers known.
CCCn1nnnc1CSCc1ccccn1 | 1.73
NC1CCN(Cc2ccc(F)c(F)c2)CC1 | 10.51
CSCC(=O)Nc1ccc(C(=O)NCC(F)(F)F)cc1 | 10.77
CN(Cc1ccc(Oc2ccccc2)cc1)C(=O)CN | 13.35
O=C(Nc1cccc(Cl)c1Cl)C1CCS(=O)(=O)C1 (centres undefined) | -2.85

Ask: Any idea what its Inhibition is? The molecule is COCc1cccc(-c2nc(C3CCOC3)no2)n1 (centres undefined)
Result: 9.25

Ask: Any idea what its Inhibition is? The molecule is "Cn1ccnc1CN(Cc1ccc(CO)o1)C1CC1"
Result: 10.44

Ask: Any idea what its Inhibition is? The molecule is "COc1ccc(OCCN2CCNCC2)cc1"
Result: 8.28

Ask: Any idea what its Inhibition is? The molecule is "O=C1CN(C(=O)c2ccn(-c3ccccc3)n2)CCN1"
Result: 1.11

Ask: Any idea what its Inhibition is? The molecule is "CC(C)(C)OC(=O)c1ncccc1N"
Result: 5.28

Ask: Any idea what its Inhibition is? The molecule is "O=C(NCCCOC(F)F)NCc1ccc(Br)o1"
Result: 3.72
